Listing of recorded cytotoxicity at 41 h, 10 µM by entry.
test: in vitro; settings: human
Where a name gives a salt, the structure may show the parent alone.
Value expressed in %; do not type the unit.

These recorded examples may help you get a feel for the data.
[
  {
    "Compound": "CC1(C)CC2C1CCC1(C)OC1CCC2(C)O (centres unmarked)",
    "cytotoxicity at 41 h, 10 µM / %": -10.9
  },
  {
    "Compound": "COc1ccc(C(C)=O)c(OC)c1",
    "cytotoxicity at 41 h, 10 µM / %": -24.3
  },
  {
    "Compound": "COc1cc(O)cc(OC)c1OC [ANTIAROL]",
    "cytotoxicity at 41 h, 10 µM / %": 6.9
  },
  {
    "Compound": "CC1(C)CC23C(=O)CCC(O)C2(C)CCC13 (centres unmarked)",
    "cytotoxicity at 41 h, 10 µM / %": 15.3
  }
]

Recorded result, O=C(O)CCCCCCCCCCCC[C@@H]1C=CCC1 , cytotoxicity at 41 h, 10 µM: -49.1

compound O=C(/C=C/c1ccccc1)c1ccc(O)cc1 [4'-HYDROXYCHALCONE] , cytotoxicity at 41 h, 10 µM observed: 20.5

Value of cytotoxicity at 41 h, 10 µM reported for the compound CN[C@@H]1[C@@H](O)[C@@H](O[C@@H]2[C@@H](O)[C@H](O[C@H]3OC(CN)=CC[C@H]3N)[C@@H](N)C[C@H]2N)OC[C@]1(C)O [SISOMICIN SULFATE] is -7.8

// cytotoxicity at 41 h, 10 µM value for Oc1ccc([C@H]2Oc3cc(O)cc(O)c3C[C@H]2O)cc1 [EPIAFZELECHIN (2R,3R)(-)] : -10.2

cytotoxicity at 41 h, 10 µM reading for C[C@@H]1CC[C@H]2[C@@H](C)C(=O)O[C@@H]3O[C@@]4(C)CC[C@@H]1[C@]32OO4 : 0

Where do the numbers come from? From paper PMC6736568.
